- Tgt: mMASP-2 (Mus musculus (Mouse))
- Sequence (Q91WP0 20-685): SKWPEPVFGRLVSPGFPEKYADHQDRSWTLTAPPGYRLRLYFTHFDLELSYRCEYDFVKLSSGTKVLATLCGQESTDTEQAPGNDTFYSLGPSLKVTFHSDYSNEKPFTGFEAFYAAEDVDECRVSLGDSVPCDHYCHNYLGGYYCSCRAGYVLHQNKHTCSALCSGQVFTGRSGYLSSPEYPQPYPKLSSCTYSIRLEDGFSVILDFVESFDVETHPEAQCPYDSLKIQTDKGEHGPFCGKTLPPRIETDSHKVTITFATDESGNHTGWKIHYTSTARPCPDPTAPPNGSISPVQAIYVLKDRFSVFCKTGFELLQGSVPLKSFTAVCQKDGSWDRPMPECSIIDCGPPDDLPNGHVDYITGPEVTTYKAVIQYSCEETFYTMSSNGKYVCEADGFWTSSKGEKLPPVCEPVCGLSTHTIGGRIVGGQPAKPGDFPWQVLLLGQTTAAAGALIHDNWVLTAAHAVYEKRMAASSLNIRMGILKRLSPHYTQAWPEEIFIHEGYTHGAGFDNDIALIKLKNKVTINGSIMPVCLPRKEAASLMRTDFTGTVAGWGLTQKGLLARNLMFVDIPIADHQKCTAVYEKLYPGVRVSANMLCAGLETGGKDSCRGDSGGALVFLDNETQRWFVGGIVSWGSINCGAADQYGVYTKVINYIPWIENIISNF
- Run description: Enzymatic inhibition of mMASP-2
- Type: biochemical
- Assay context: read-out: mMASP-2 Ki
Structures can show the parent of a compound that is named as a salt.

Compound: Cc1cc(Br)cc(CNC(=O)[C@H](C)NC(=O)[C@H](N)CCc2ccccc2)c1O [compound 1355, Trifluoroacetate salt]
Ki: 10 to 25 µM

Compound: Cc1cnc(NCCc2ccccc2)c(=O)n1CC(=O)NCc1ccc2nc(N)[nH]c2c1 [compound 1492]
Ki: < 0.5 µM

Compound: C[C@H](NC(=O)[C@H](N)Cc1cccc2ccccc12)C(=O)NCc1ccc(C(=N)N)cc1 [compound 1092]
Ki: < 0.5 µM

Compound: C[C@H](NC(=O)[C@@H](CCc1ccccc1)NCc1ccc(C(N)=O)cc1)C(=O)NCc1ccc(C(=N)N)cc1 [compound 1268]
Ki: < 0.5 µM

Compound: Cc1nc(N)ccc1CNC(=O)[C@H](C)NC(=O)[C@H]1C[C@@H](c2ccccc2)CCN1C [compound 1441]
Ki: < 0.5 µM

Compound: C[C@H](NC(=O)[C@H]1C[C@H](Cc2ccccc2)CN1)C(=O)NCc1cc(Cl)cc(Cl)c1O [compound 1448, hydrochloride]
Ki: 2.5 to 10 µM

Compound: Cc1nc(N)ccc1CNC(=O)[C@H](C)NC(=O)c1cc(Cc2ccccc2)n[nH]1 [compound 1367]
Ki: 10 to 25 µM
